System: NCI-H522 lung
procedure.summary: NCI tumour cell line growth inhibition, 48 h
measured.quantity: TGI (µM)
Give the value in µM but do not write µM after it.

# example entries with known answers
C[C@H]1CC[C@@]2(OC1)O[C@H]1C[C@H]3[C@@H]4CC[C@@H]5C[C@@H](OC6OC(CO)C(O)C(O)C6OC6OC(CO)C(O)C(O)C6O)CC[C@]5(C)[C@H]4CC[C@]3(C)[C@H]1[C@@H]2C (stereo partly specified) = 4.75
COC1(OC)CCc2c(sc3ncnc(Nc4cccc(Br)c4)c23)C1 = 30.3
O=C(c1cccs1)c1c(C(F)(F)F)n([O-])c2cc(Cl)c(Cl)cc2[n+]1=O = 2.2
CC(C)[C@@H]1CC[C@]2(CO2)[C@@H]2C(=O)OCC(C(=O)O)=C[C@H]21 = 0.155
CCN1/C(=C/C#C/C(C)=C\c2sc3ccc(Cl)cc3[n+]2CC)Sc2ccc(Cl)cc21 = 6.02

// below: TGI requested for another compound
Requested read-out: TGI. Entry: `O=C(COc1ccc(/C=C2\Oc3ccccc3C2=O)cc1)Nc1nc2ccccc2s1`
0.487

---

System: SNB-19 CNS
procedure.summary: NCI tumour cell line growth inhibition, 48 h
measured.quantity: TGI

# example entries with known answers
COC(=O)c1c(C)cccc1/C=C1\Cc2ccc(C)c(C)c2C1=O = > 100 µM
NC1=NC(Cn2nc(-c3ccccc3)c3ccccc3c2=O)=NNC(=O)N1 = > 100 µM
CCOC(=O)/C(=C\c1cccc(C)c1)C(C)=O = 36.7 µM
CN1CCOC(C(NC(=O)c2ccccc2)c2ccccc2)C1=O (stereo unspecified) = > 100 µM
O=C(NCCN(CCNC(=O)c1cccc(O)c1O)CCNC(=O)c1cccc(O)c1O)c1cccc(O)c1O = > 100 µM

// below: TGI requested for another compound
Requested read-out: TGI. Entry: `COCCN(CCOC)c1nc(-c2ccccc2)nc2ccccc12`
> 100 µM

---

System: M14 melanoma
procedure.summary: NCI tumour cell line growth inhibition, 48 h
Known log10 of TGI of a selection of compounds
The base-10 logarithm of TGI, taken with TGI in µM, is what appears here.

CC[C@H](C)[C@H](NC(=O)[C@H]1CCCCN1C)C(=O)N(C)[C@H](C[C@@H](OC(C)=O)c1nc(C(=O)NC23CC(C(=O)OC)(C2)C3)cs1)C(C)C = -2.21

Requested read-out: log10 of TGI. Entry: `COc1ccc(Nc2cnc3cc(N)cc(N)c3n2)cc1`
1.45

Now consider `NS(=O)(=O)c1nnc(NC(=S)NC(=O)Nc2ccc(Cl)c(Cl)c2)s1` and answer again.
1.56

Now consider `COC(=O)c1cc2c(cc1Cl)Sc1nnc(Nc3ccccc3)n1S2(=O)=O` and answer again.
1.24

Now consider CC(=O)NC1C(O[C@H]2C[C@H]3[C@@H]4CC=C5C[C@@H](O)CC[C@]5(C)[C@H]4CC[C@]3(C)[C@H]2[C@H](C)C(=O)CCC(C)C)OCC(O)C1O (some centres undefined) and answer again.
0.20

Now consider COc1ccc2nc3cc(Cl)ccc3c(NC(C)CCCN(CCCl)CCCl)c2c1 (centres undefined) and answer again.
0.44

Now consider `CCOC(=O)/C(=C/c1ccccn1)C(=O)c1ccccc1` and answer again.
1.47
